# assay.system: Neuronal acetylcholine receptor; alpha4/beta2 (Rattus norvegicus, UniProt P09483+P12390)
# Sequence (P09483 whole entry): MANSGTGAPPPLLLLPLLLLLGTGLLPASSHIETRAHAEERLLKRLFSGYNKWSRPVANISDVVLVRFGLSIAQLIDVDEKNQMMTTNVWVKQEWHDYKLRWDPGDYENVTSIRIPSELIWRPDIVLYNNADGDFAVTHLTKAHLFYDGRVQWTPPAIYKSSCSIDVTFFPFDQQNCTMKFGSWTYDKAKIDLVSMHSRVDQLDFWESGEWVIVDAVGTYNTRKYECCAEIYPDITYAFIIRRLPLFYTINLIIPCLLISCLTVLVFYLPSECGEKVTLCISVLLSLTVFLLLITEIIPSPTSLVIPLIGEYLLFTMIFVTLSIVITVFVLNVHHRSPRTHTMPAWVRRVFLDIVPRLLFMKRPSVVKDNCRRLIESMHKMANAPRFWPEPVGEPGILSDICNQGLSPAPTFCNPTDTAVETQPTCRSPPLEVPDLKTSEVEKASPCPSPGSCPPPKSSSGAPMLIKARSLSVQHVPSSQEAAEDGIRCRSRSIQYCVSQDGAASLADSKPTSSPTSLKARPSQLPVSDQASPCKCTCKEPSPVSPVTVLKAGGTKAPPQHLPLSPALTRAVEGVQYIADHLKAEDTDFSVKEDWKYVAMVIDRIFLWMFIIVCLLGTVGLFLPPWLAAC
# Sequence (P12390 whole entry): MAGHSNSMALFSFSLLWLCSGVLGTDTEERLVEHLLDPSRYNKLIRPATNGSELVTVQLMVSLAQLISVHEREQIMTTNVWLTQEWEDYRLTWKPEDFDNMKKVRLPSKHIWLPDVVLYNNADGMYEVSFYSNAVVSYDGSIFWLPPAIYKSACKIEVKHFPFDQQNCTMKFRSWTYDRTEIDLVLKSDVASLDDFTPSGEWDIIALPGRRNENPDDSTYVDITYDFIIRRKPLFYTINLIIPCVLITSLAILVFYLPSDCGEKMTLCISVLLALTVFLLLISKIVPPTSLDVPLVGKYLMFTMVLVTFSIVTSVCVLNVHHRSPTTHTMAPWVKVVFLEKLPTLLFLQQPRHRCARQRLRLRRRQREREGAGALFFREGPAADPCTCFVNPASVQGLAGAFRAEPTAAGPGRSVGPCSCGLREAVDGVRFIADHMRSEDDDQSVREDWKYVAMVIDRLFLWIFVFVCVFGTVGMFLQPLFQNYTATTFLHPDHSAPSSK
# experiment.summary: Displacement of [3H]epibatidine from rat alpha4beta2 nAChR transfected in HEK293 cells after 2 hrs by beta-plate counting analysis
measured.parameter: Ki (nM)
Write the value in nM as a bare number.

Look over these answered cases.
{"columns": ["molecule", "reading.unit", "Ki"],
 "data": [
  ["CC(C)CCCN1C(N)=NC[C@@H]1CCCCN1C[C@@H](CC2CCCCC2)N(CCc2cccc(Br)c2)C1=N", "nM", 3300],
  ["CC(C)CCCN1C(=N)NC[C@@H]1CCCCN1C[C@@H](Cc2ccccc2)N(CCc2cccc(Br)c2)C1=N", "nM", 2600],
  ["N=C1N(CCCC[C@H]2CN=C(N)N2CCc2ccc(Cl)c(Cl)c2)C[C@@H](Cc2ccc3ccccc3c2)N1CCc1ccc(Cl)c(Cl)c1", "nM", 47500]
]}

Note: attention shifts to another entry.
In: Entry under review: CC(C)(C)C1CCC(CN2C(=N)N(CCCC[C@H]3CNC(=N)N3CCc3cccc(F)c3)C[C@H]2Cc2ccccc2)CC1 (some centres undefined) . Reported Ki?
Out: 1590
